target.of.assay: T1, cell surface-expressed human αvβ8 (human, UniProt P06756 31-1048; P26012 43-769)
T1 construct: whole, on cells; also called αvβ8 on SNB19 human astrocytoma cells
test.name: FACS titration on SNB19 human astrocytoma cells
quantity: pKd
Numbers only, as −log10 of the molar value.

Item: ADWA16-chimera (antibody, V domains shown, It was captured on anti-human Fab-CH1 tips and detected with anti-human secondary, so it has human constant regions; also called chimeric ADWA-16; chimeric version of the parent ADWA16 murine IgG) VH: QVQLQQSGAELAKPGASMKMSCKASGYTFSSYWIYWVKQRPGQGLEWIGYINPTTGYTEYNQKFRDKATLTADKSSNTAYMQLSSLTSEDSAVYYCATEGGNWEDYWGQGTTLTVSS VL: DIQMTQTTSSLSASLGDRVTISCRASQDISNYLNWYQQKPDGTVKLLIYYTSRLYSGVPSRFSGSGSGTDYSLTISNLEPKDIATYYCQQFSELPRTFGGGTKLEIK | pKd: 9.52
